- STUDY_SYSTEM: CDK7/Cyclin H/MAT-1 complex (Homo sapiens, UniProt P50613)
- Construct: Human CDK7 (amino acids 1-346); His6 (N); TEV protease cleavage site (N); made in house; host or cells: baculovirus-SF9 insect cells
- Sequence (P50613 whole entry, the tested form may be a part): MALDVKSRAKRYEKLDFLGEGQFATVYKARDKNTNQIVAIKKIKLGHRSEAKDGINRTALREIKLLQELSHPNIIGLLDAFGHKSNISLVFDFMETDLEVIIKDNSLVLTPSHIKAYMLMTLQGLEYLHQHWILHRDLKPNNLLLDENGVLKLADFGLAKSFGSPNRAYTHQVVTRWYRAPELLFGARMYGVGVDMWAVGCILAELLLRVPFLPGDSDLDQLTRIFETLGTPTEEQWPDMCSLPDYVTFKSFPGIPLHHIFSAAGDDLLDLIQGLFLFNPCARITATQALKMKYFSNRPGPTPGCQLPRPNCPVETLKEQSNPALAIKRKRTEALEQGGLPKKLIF
- Sequence (P51946 whole entry partner, the tested form may be a part): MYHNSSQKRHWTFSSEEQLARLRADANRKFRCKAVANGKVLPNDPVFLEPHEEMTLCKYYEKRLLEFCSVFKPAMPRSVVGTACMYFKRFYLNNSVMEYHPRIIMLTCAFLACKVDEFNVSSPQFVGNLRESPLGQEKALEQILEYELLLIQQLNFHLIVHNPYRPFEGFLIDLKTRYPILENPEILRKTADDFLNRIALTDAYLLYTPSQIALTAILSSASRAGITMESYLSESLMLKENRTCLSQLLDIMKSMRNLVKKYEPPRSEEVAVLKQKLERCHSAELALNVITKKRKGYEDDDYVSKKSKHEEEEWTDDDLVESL
- Sequence (P51948 whole entry partner, the tested form may be a part): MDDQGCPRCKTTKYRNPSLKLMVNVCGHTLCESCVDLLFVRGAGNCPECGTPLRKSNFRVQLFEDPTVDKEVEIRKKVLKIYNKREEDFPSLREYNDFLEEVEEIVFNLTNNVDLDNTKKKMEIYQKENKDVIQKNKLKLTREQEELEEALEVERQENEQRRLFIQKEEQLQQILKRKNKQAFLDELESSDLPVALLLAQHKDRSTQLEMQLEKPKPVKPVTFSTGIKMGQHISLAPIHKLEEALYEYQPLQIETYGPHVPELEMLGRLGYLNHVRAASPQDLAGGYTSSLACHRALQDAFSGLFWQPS
- EXPERIMENT: Absorbance kinetic assay (20 nM CDK7/Cyclin H/MAT-1 complex)
- Type: biochemical
- EXPERIMENTAL_CONTEXT: read-out: CDK7 (20 nM) pIC50 (converted)
OBSERVED_PROPERTY: IC50 (nM)

CC[C@@H]1Cc2cnc(NC3CCOCC3)nc2CN1C(=O)[C@H]1CCN(C)C[C@@H]1c1ccccc1 (relative stereo) [Compound 185]	42.7

1: C[C@@H]1Cc2cnc(NCc3ccccc3)nc2CN1C(=O)[C@@H]1CCN(C)C[C@H]1C(F)(F)F (relative stereo) [Compound 141]
2: CO[C@H]1CC[C@H](Nc2ncc3c(n2)CN(C(=O)[C@H]2CCN(C)C[C@@H]2c2ccnc(C)c2)[C@H](C)C3)CC1 (relative stereo) [Compound 106]
Hey, which is lower on measured IC50, 1 or 2 ? Pick one and reply with its label.
1
